target: T1, ubiquitin mutein 77404; assay: SPR (Biacore 3000), ligand multimer immobilised, ubiquitin mutein in solution
T1 construct: also called Affilin-77404

binder	Kd / nM
SEQ21 trimer (215997) (designed binder) NAARSDEAQYSAWAEIEALPNLTEMQKDQFIWSLMFDPSVSKEVLGEAQKLNDSQAPKQAPKVDAKFDQAPKVDAKFDNAARSDEAQYSAWAEIEALPNLTEMQKDQFIWSLMFDPSVSKEVLGEAQKLNDSQAPKQAPKVDAKFDQAPKVDAKFDNAARSDEAQYSAWAEIEALPNLTEMQKDQFIWSLMFDPSVSKEVLGEAQKLNDSQAPKC	0.4
